Recorded values, source patent US11691962B2.

- assay-overview: Plasma protein binding by equilibrium dialysis
- Type: in vitro ADME
- condition-context: both sexes, pH 7.4, pooled human plasma, 4 hours at 37° C., read-out: PPB (%)
recorded-metric: fraction unbound at 4 h, 10 μM

CC[C@@H](NC(=O)N1C(=O)[C@H](Cc2cc(C)nc(N)c2)[C@H]1C(=O)N(C)c1nccn1C)c1cc(F)ccc1F [Compound 1-137] ... 0.05 to 0.09
CC[C@@H](NC(=O)N1C(=O)[C@H](Cc2cc(C)nc(N)c2)[C@H]1C(=O)N(C)c1ccnn1C)c1ccc(F)c(F)c1 [Compound 1-158] ... 0.05 to 0.09
CC[C@@H](NC(=O)N1C(=O)[C@H](Cc2cc(C)nc(NC)c2)[C@H]1C(=O)N(C)c1nccn1C)c1cccc(Cl)c1 [Compound 1-46] ... 0.05 to 0.09
CC[C@@H](NC(=O)N1C(=O)[C@H](Cc2ccnc(N)c2)[C@H]1C(=O)N(C)c1ccn(C)n1)c1ccccc1 [Compound 1-3] ... 0.1 to 0.5
CC(C)[C@@H](NC(=O)N1C(=O)[C@H](Cc2ccnc(N)c2)[C@H]1C(=O)N(C)c1ccn(C)n1)C1CCCCC1 [Compound 1-57] ... < 0.05
CC[C@@H](NC(=O)N1C(=O)[C@H](Cc2ccnc(N)c2)[C@H]1C(=O)N(C)c1nccn1C)c1cccc(Cl)c1 [Compound 1-35] ... 0.1 to 0.5
CC[C@@H](NC(=O)N1C(=O)[C@H](Cc2ccnc(N)c2)[C@H]1C(=O)N(C)c1nccn1C)c1cc(F)ccc1F [Compound 1-84] ... 0.1 to 0.5
CC[C@@H](NC(=O)N1C(=O)[C@H](Cc2cc(C)nc(N)c2)[C@H]1C(=O)N(C)c1ccnn1C)c1ccc(C)c(F)c1 [Compound 1-155] ... 0.1 to 0.5
CC[C@@H](NC(=O)N1C(=O)[C@H](Cc2ccnc(N)c2)[C@H]1C(=O)N(C)c1ccn(C)n1)c1cccc(Cl)c1 [Compound 1-91] ... 0.1 to 0.5
CC[C@@H](NC(=O)N1C(=O)[C@H](Cc2cc(C)nc(N)c2)[C@H]1C(=O)N(C)c1ccnn1C)c1ccc(C)c(C)c1 [Compound 1-152] ... 0.1 to 0.5

Prompt: Which fraction unbound at 4 h, 10 μM is listed for CC[C@@H](NC(=O)N1C(=O)[C@H](Cc2cc(C)nc(N)c2)[C@H]1C(=O)N(C)c1ccnn1C)C1CCCCC1 [Compound 1-67] ?
Response: 0.1 to 0.5

Prompt: Fill in: fraction unbound at 4 h, 10 μM of CC[C@@H](NC(=O)N1C(=O)[C@H](Cc2ccnc(N)c2)[C@H]1C(=O)N(C)c1cscn1)c1cccc(Cl)c1 [Compound 1-17] is ___
Response: 0.05 to 0.09

Prompt: Give the measured fraction unbound at 4 h, 10 μM of CC[C@@H](NC(=O)N1C(=O)[C@H](Cc2ccnc(N)c2)[C@H]1C(=O)N(C)c1cnn(C)c1)c1ccc(C)nc1 [Compound 1-18] .
Response: < 0.5

Prompt: Using the record for CN(C(=O)[C@@H]1[C@@H](Cc2ccnc(N)c2)C(=O)N1C(=O)N[C@@H](C1CCCCC1)C1CC1)c1ccn(C)n1 [Compound 1-58] , report its fraction unbound at 4 h, 10 μM.
Response: 0.05 to 0.09

Prompt: May I ask what fraction unbound at 4 h, 10 μM has been recorded for CC[C@@H](NC(=O)N1C(=O)[C@H](Cc2ccnc(N)c2)[C@H]1C(=O)N(C)c1nccn1C)c1ccc(C)nc1 [Compound 1-81] ?
Response: < 0.5

Prompt: Name the reported fraction unbound at 4 h, 10 μM value associated with the compound CC[C@@H](NC(=O)N1C(=O)[C@H](Cc2ccnc(N)c2)[C@H]1C(=O)N(C)c1ccnn1C)c1ccccc1 [Compound 1-92]
Response: 0.1 to 0.5
